These measurements were taken from the DeepSol protein solubility set.

method-summary: soluble on expression in E. coli; label from the status in PepcDB or PDB records
reported-property: soluble on expression in E. coli

# annotated cases, reported soluble on expression in E. coli shown
MRGSHHHHHHGMASMSVSTASTEMSVRKIAAHMKSNPNAKVIFMVGAGISTSCGIPDFRSPGTGLYHNLARLKLPYPEAVFDVDFFQSDPLPFYTLAKELYPGNFRPSKFHYLLKLFQDKDVLKRVYTQNIDTLERQAGVKDDLIIEAHGSFAHCHCIGCGKVYPPQVFKSKLAEHPIKDFVKCDVCGELVKPAIVFFGEDLPDSFSETWLNDSEWLREKITTSGKHPQQPLVIVVGTSLAVYPFASLPEEIPRKVKRVLCNLETVGDFKANKRPTDLIVHQYSDEFAEQLVEELGWQEDFEKILTAQ	soluble
MSLGRHSDNSLQESANHTVLLTSPTNTIPKDSRQRSQQFMQNLQDEICTALEQLDGKASFHQDHWERAEGGEGRTRVIREGRVFEQGGVNFSAVWGNSLPASILAQRPEAAGHEFFATGTSMVLHPRNPYVPTVHLNYRYFEAGPIWWFGGGADLTPYYAFKEDAVHFHQTLKNACDVHNPEYYPTFKRWCDEYFYLRHREEQRGIGGIFFDYQDASGKLYVESQTDSSVAIYSQKVGNVARNWEDIFAFVQSCGQAFLPAYLPIVERRQGIEYGDRQRNFQLYRRGRYVEFNLVYDRGTVFGLQTKGRTESILMSLPPLARWEYCYEPEAGSPEAELTEVFLQPRDWVEGHHHHHH	not soluble
MSLNILVIGTGAIGSFYGALLAKTGHCVSVVARSDYETVKAKGIRIRSATLGDYTFRPAAVVRSAAELETKPDCTLLCIKVVEGADRVGLLRDAVAPDTGIVLISNGIDIEPEVAAAFPDNEVISGLAFIGVTRTAPGEIWHQAYGRLMLGNYPGGVSERVKTLAAAFEEAGIDGIATENITTARWQKCVWNAAFNPLSVLSGGLDTLDILSTQEGFVRAIMQEIRAVAAANGHPLPEDIVEKNVASTYKMPPYKTSMLVDFEAGQPMETEVILGNAVRAGRRTRVAIPHLESVYALMKLLELRTSKSLWGNEGHHHHHH	soluble
DIQMTQSPSSLSASVGDRVTITCRASGNIHNYLAWYQQKPGKAPKLLIYYTTTLADGVPSRFSGSGSGTDYTFTISSLQPEDIATYYCQHFWSTPRTFGQGTKVEIKR	soluble
MAARDPEATKARIFEAAVAEFARHGIAGARIDRIAAEARANKQLIYAYYGNKGELFASVLEKKMLDLAISVPVDPDDIEGWIDRLLDYHAAHPELLRLLFWEGMEYGTAELPHEAERQEHYARKVAAVRDGQERGVITDAIPAPDLLFLLVAMANWAVVVPQMKRILVGGGDAGTDGLRDSIKKAARRIVDR	not soluble

Lab note: GMKTSVKFETIFPLTTAPLIQCITNEITCESMANALLYIDAKPIMADDPREFPQMFQQTSALVLNLGHLSQEREQSLLAASDYARQVNKLTVVDLVGYGASDIRNEVGEKLVHNQPTVVKGNLSEMRTFCQLVSHGRGVDGSPLDQSEEAIEELIQALRQQTQKFPQTVFLATGIQDVLVSQEQVIVLQNGVPELDCFTGTGDLVGALVAALLGEGNAPMTAAVAAVSYFNLCGEKAKTKSQGLADFRQNTLNQLSLLMKEKDWFEAVKGRVL gave soluble on expression in E. coli of soluble

Lab note: MIPLSIRVPASTANVGPGFDSVGIALSLYLHVVVKEKSDKWQVIHSFEDSIPTDDKNLIVSTACKVCPSLSPHIIEVTSNIPLTRGLGSSASAIVAGIELANQLGKLNLTIDQKVQIATNFEGHPDNVAASILGGTVIGALDGKNVSVVRIESKELGVISLIPNEELNTDESRSVLPDVFPFHEAVKASAISNVLVAALCQKKWKVVGEMMERDHFHEPYRLELVPLLPSIRKCAKEFGAYGTALSGAGPSIFILTPYEKRQEIAEQLARVFTSMKVCELEIDHRGITVNKKEHIGL gave soluble on expression in E. coli of not soluble
